# System: rodent lifetime carcinogenesis bioassay, tumor incidence TD50
# PROCEDURE_DETAILS: carcinogenic potency in animals, long-term in vivo studies, CPDB compilation (AID 1745844)
# CONDITION_PARAMETERS: rat; strain Fischer 344; females; in feed; site: urinary bladder; lesion: squamous-cell papilloma; dosed 27 weeks; study length 104 weeks
MEASUREMENT_LABEL: TD50

[Q] Entry COc1ccccc1[N+](=O)[O-] : reported TD50 = ?
[A] 751 mg/kg/day

====

# Tested on: rodent lifetime carcinogenesis bioassay, tumor incidence TD50
# PROCEDURE_DETAILS: carcinogenic potency in animals, long-term in vivo studies, CPDB compilation (AID 1745844)
# CONDITION_PARAMETERS: rat; strain Sprague-Dawley; males; inhaled; site: liver; lesion: hepatoma; dosed 52 weeks; study length 123 weeks
MEASUREMENT_LABEL: TD50 (mg/kg/day)
Answers are plain numbers, in mg/kg/day.

[Q] Entry C=CCl : reported TD50 = ?
[A] 152

====

# System: rodent lifetime carcinogenesis bioassay, tumor incidence TD50
# PROCEDURE_DETAILS: carcinogenic potency in animals, long-term in vivo studies, CPDB compilation (AID 1745844)
# CONDITION_PARAMETERS: rat; strain F344/DuCrj; females; in feed; site: small intestine; lesion: adenocarcinoma; dosed 72 weeks; study length 72 weeks
MEASUREMENT_LABEL: TD50

[Q] Entry Cn1c(N)nc2c3cccnc3ccc21 : reported TD50 = ?
[A] 195 mg/kg/day

====

# Test system: rodent lifetime carcinogenesis bioassay, tumor incidence TD50
# PROCEDURE_DETAILS: carcinogenic potency in animals, long-term in vivo studies, CPDB compilation (AID 1745844)
# CONDITION_PARAMETERS: mouse; strain B6C3F1; females; by gavage; site: forestomach; lesion: several types; types named in the paper; dosed 104 weeks; study length 107 weeks
MEASUREMENT_LABEL: TD50

{"MOLECULE": "ClCc1ccccc1", "TD50": "81 mg/kg/day"}

Kindly review the next molecule as well.
[Q] Entry c1ccc(C2CO2)cc1 (configuration not stated) : reported TD50 = ?
[A] 172 mg/kg/day

====

# Test system: rodent lifetime carcinogenesis bioassay, tumor incidence TD50
# PROCEDURE_DETAILS: carcinogenic potency in animals, long-term in vivo studies, CPDB compilation (AID 1745844)
# CONDITION_PARAMETERS: rat; strain Fischer 344; males; by gavage; site: skin; lesion: squamous-cell papilloma; dosed 94 weeks; study length 104 weeks
MEASUREMENT_LABEL: TD50
Answer with the number, then the unit.

[Q] Entry ClCC(Cl)CCl : reported TD50 = ?
[A] 51 mg/kg/day

====

# Tested on: rodent lifetime carcinogenesis bioassay, tumor incidence TD50
# PROCEDURE_DETAILS: carcinogenic potency in animals, long-term in vivo studies, CPDB compilation (AID 1745844)
# CONDITION_PARAMETERS: rat; strain Fischer 344; males; inhaled; site: kidney + mammary gland + testis; lesion: tubule adenoma + carcinoma + fibroadenoma + fibroadenoma, multiple + interstitial-cell adenoma, bilateral + interstitial-cell aden; dosed 104 weeks; study length 104 weeks
MEASUREMENT_LABEL: TD50 (mg/kg/day)
One number for each entry, in mg/kg/day.

[Q] Field: TD50 (rodent lifetime carcinogenesis bioassay, tumor incidence TD50). Entry: C=CC(=C)C
[A] 988
